# measured_target: mycobacterial protein kinase G (PknG) (Mycobacterium tuberculosis)
# Construct: GST; made in house; host or cells: E. coli BL21
# measurement_notes: biochemical
# condition_summary: ATP near Km; read-out: Inhibition of PknG (IC50, [μM])
Form field: IC50 (one value per entry).

# compound, property_measured, result
data = [
    ("NC(=O)c1c(NC(=O)Cc2ccc([N+](=O)[O-])cc2)sc2c1CCCC2 [Compound 238]", "IC50", "~5 µM"),
    ("O=C(O)c1c(NC(=O)C2CC2)sc2c1CCCC2 [Compound 252]", "IC50", "~19 µM"),
    ("NC(=O)c1c(NC(=O)C2CC2)sc2c1CCSC2 [Compound 286]", "IC50", "~2 µM"),
]

# next compound below
Please list IC50 recorded for the compound CC(C)C(=O)Nc1sc2c(c1C(N)=O)CCCC2 [Compound 255]
~3 µM

====

# measured_target: mycobacterial protein kinase G (PknG) (Mycobacterium tuberculosis, UniProt P9WI73)
# Construct: GST; made in house; host or cells: E. coli BL21
# Sequence (P9WI73 whole entry): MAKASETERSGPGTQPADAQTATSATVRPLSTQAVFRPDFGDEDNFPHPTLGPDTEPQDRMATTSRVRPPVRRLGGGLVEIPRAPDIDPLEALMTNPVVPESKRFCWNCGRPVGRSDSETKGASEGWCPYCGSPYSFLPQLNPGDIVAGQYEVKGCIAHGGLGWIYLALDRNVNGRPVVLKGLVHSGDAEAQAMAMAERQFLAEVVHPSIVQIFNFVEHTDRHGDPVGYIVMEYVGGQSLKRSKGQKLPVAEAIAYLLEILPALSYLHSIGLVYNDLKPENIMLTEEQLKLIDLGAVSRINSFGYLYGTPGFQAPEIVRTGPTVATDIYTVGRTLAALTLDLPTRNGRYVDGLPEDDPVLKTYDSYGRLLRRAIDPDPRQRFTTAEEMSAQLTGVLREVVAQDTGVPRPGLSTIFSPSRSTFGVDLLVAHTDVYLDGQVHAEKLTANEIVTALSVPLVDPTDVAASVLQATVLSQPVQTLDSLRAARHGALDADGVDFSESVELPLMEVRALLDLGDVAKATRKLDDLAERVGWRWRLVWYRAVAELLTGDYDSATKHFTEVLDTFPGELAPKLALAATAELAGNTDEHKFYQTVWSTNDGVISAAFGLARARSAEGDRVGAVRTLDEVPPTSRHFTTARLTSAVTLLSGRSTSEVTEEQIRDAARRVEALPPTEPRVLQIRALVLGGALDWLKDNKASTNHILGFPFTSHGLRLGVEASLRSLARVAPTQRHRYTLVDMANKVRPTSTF
# measurement_notes: biochemical
# condition_summary: ranging from about 2 μM and more than 30 μM over the listed compounds; read-out: IC50 values, inhibition of PknG (span stated for the group)
Form field: IC50 (one value per entry).

Examples from the recorded data:
# compound, measured_target, property_measured, result
data = [
    ("CC(=O)Nc1sc2c(c1C(N)=O)CCCC2", "mycobacterial protein kinase G (PknG) (Mycobacterium tuberculosis, UniProt P9WI73)", "IC50", "≥ 2 µM"),
    ("CCOC(=O)c1c(NC(=O)C(C)C)sc2c1CCCC2", "mycobacterial protein kinase G (PknG) (Mycobacterium tuberculosis, UniProt P9WI73)", "IC50", "≥ 2 µM"),
    ("CCC(C)C(=O)Nc1sc2c(c1C(N)=O)CCCC2 (centres unmarked)", "mycobacterial protein kinase G (PknG) (Mycobacterium tuberculosis, UniProt P9WI73)", "IC50", "≥ 2 µM"),
]

Please list IC50 recorded for the compound NC(=O)c1c(NC(=O)Cc2ccc([N+](=O)[O-])cc2)sc2c1CCCC2
≥ 2 µM

Please list IC50 recorded for the compound NC(=O)c1c(NC(=O)C2CC2)sc2c1CCSC2
≥ 2 µM

Please list IC50 recorded for the compound NC(=O)c1c(NC(=O)C2CCC2)sc2c1CCCC2
≥ 2 µM

Please list IC50 recorded for the compound CC(C)C(=O)Nc1sc2c(c1C(N)=O)CCCC2
≥ 2 µM

Please list IC50 recorded for the compound CC(=O)Nc1sc2c(c1C(N)=O)CCC(C)C2 (centres unmarked)
≥ 2 µM

Please list IC50 recorded for the compound O=C(Nc1sc2c(c1C(=O)NCCO)CCCC2)c1ccco1
≥ 2 µM

Please list IC50 recorded for the compound O=C(O)c1c(NC(=O)C2CC2)sc2c1CCCC2
≥ 2 µM

Please list IC50 recorded for the compound CC1CCc2c(sc(NC(=O)Cn3cnc([N+](=O)[O-])n3)c2C(N)=O)C1 (centres unmarked)
≥ 2 µM

====

# measured_target: mycobacterial protein kinase G (PknG) (Mycobacterium tuberculosis, UniProt P9WI73)
# Construct: GST; made in house; host or cells: E. coli BL21
# measurement_notes: biochemical
# condition_summary: read-out: IC50 value, inhibition of serine/threonine protein kinase G of M. tuberculosis
Form field: IC50 (one value per entry).
Hi! Could you send only the number? It should be in nM, unit omitted.

# compound, unit_descriptor, IC50
records = [
    ("NC(=O)c1c(NC(=O)C2CC2)sc2c1CCCC2", "nM", 200),
]

Please list IC50 recorded for the compound CC1CCc2c(sc(NC(=O)C3CC3)c2C(N)=O)C1 (centres unmarked)
900
